The reported measurements were obtained from ChEMBL document CHEMBL3792307.

assay.target: Casein kinase II (Homo sapiens, UniProt P19784+P67870+P68400)
test: Competitive inhibition of recombinant human CK2 holoenzyme by Lineweaver-Burk plot analysis
Type: protein-complex assay
readout.label: Ki (nM)

| structure.smiles | readout.label | observed.value |
| --- | --- | --- |
| Cc1sc2ncnc(Nc3cccc(C(=O)O)c3)c2c1-c1ccccc1 | Ki | 4 |

P: Cc1ccc(-c2csc3ncnc(Nc4cccc(C(=O)O)c4)c23)cc1
Q: O=C(O)c1cccc(Nc2ncnc3scc(-c4ccccc4)c23)c1
Compare reported Ki values for P and Q . Which is lower? Give the label of your selection.
P
(P: 4.5 nM, Q: 12.7 nM)

====

assay.target: Casein kinase II (Homo sapiens, UniProt P19784+P67870+P68400)
test: Inhibition of recombinant human CK2 holoenzyme using RRRDDDSDDD as substrate measured after 20 mins at 30 degC by radiometric kinase assay in presence of [gamma-32P]ATP
readout.label: Ki (nM)
Unit nM implied. Number only.

// CC(C(=O)O)N1C(=O)c2c(I)c(I)c(I)c(I)c2C1=O (stereo unspecified) : Ki value = 100

====

assay.target: Casein kinase II (Homo sapiens, UniProt P19784+P67870+P68400)
test: Inhibition of recombinant human CK2 holoenzyme using RRRDDDSDDD as substrate measured after 20 mins at 30 degC by radiometric kinase assay in presence of [gamma-32P]ATP
pIC50: −log10 of the molar value.
readout.label: pIC50

As a guide, the following entries are already answered.
| compound | assay.target | pIC50 |
| --- | --- | --- |
| O=C(O)c1cccc(Nc2ncnc3scc(-c4ccccc4)c23)c1 | Casein kinase II (Homo sapiens, UniProt P19784+P67870+P68400) | 7.19 |
| Cc1c(C(=O)O)sc2ncnc(Nc3cccc(C(=O)O)c3)c12 | Casein kinase II (Homo sapiens, UniProt P19784+P67870+P68400) | < 4.48 |
| CCOC(=O)c1sc2ncnc(NCC(=O)O)c2c1C | Casein kinase II (Homo sapiens, UniProt P19784+P67870+P68400) | < 4.48 |

// `Cc1nc(N2CCC[C@H]2C(=O)O)c2cc(-c3ccccc3)sc2n1` : pIC50 value = < 4.48

// `O=C(O)[C@@H]1CCCN1c1ncnc2sc(-c3ccccc3)cc12` : pIC50 value = < 4.48

// `Cc1ccc(-c2csc3ncnc(Nc4ccc(C(=O)O)cc4)c23)cc1` : pIC50 value = 6.19

====

assay.target: Casein kinase II (Homo sapiens, UniProt P19784+P67870+P68400)
test: Inhibition of recombinant human CK2 holoenzyme using RRRDDDSDDD as substrate measured after 20 mins at 30 degC by radiometric kinase assay in presence of [gamma-32P]ATP
readout.label: IC50 (µM)

| compound | unit.spec | IC50 |
| --- | --- | --- |
| Cc1ccc(-c2csc3ncnc(Nc4cccc(C(=O)O)c4)c23)cc1 | µM | 0.01 |
| Cc1nc(Nc2cccc(C(=O)O)c2)c2cc(-c3ccccc3)sc2n1 | µM | 1.5 |
| O=C(O)c1cccc(Nc2ncnc3sc(-c4ccccc4)cc23)c1 | µM | 0.26 |
| O=C(O)c1ccc(Nc2ncnc3scc(-c4ccc(Cl)cc4)c23)cc1 | µM | 0.83 |
| Cc1sc2ncnc(Nc3ccc(O)c(C(=O)O)c3)c2c1-c1ccccc1 | µM | 0.31 |

P: CCOC(=O)c1sc2ncnc(Nc3cccc(C(=O)O)c3)c2c1C
Q: Cc1sc2ncnc(Nc3ccc(C(=O)O)cc3)c2c1-c1ccccc1
R: O=C(O)CCNc1ncnc2sc3c(c12)CCCC3
S: Cc1sc2ncnc(Nc3cccc(C(=O)O)c3)c2c1-c1ccccc1
T: CC1CCc2c(sc3ncnc(NCCC(=O)O)c23)C1 (stereo not given)
Rank entries according to their IC50, from the largest number down. Return the labels ranked in the requested order, please.
T, R, P, Q, S
